Each recorded value in this set is attributed to the RNAGym collection of RNA variant scans (doi:10.7554/elife.80360).

B1: Twister Ribozyme (parent)
chain: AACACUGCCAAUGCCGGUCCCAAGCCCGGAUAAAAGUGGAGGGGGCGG

Variants of: B1
Assay: self-cleavage, relative activity (ratio to wild type); higher = more cleavage; co-transcriptional
Reported values of self-cleavage for individual entries
Measured Endpoint: self-cleavage

>  <Mutation>
A23G G38U

>  <Result>
0.236

$$$$
>  <Mutation>
U6G A33G

>  <Result>
0.199

$$$$
>  <Mutation>
C8A A10G

>  <Result>
0.734

$$$$
>  <Mutation>
G16A G41C

>  <Result>
0.167

$$$$
>  <Mutation>
A2G C5G

>  <Result>
0.144

$$$$
>  <Mutation>
A23U G41A

>  <Result>
0.126

$$$$
>  <Mutation>
A1U A22G

>  <Result>
0.0451

$$$$
>  <Mutation>
C9G C14A

>  <Result>
0.536

$$$$
>  <Mutation>
G13A G39A

>  <Result>
0.202

$$$$
>  <Mutation>
A2U G47C

>  <Result>
0.174

$$$$
>  <Mutation>
C8A A22U

>  <Result>
0.127

$$$$
>  <Mutation>
A10G G43A

>  <Result>
0.363

$$$$
>  <Mutation>
A33G G42A

>  <Result>
0.215

$$$$
>  <Mutation>
A22C U31G

>  <Result>
0.987

$$$$
>  <Mutation>
A4U G47A

>  <Result>
0.0604

$$$$
>  <Mutation>
C3U A22G

>  <Result>
0.0518

$$$$
>  <Mutation>
A11C A30C

>  <Result>
0.719

$$$$
>  <Mutation>
U6C C26A

>  <Result>
0.0404

$$$$
>  <Mutation>
U31C A34C

>  <Result>
0.196

$$$$
>  <Mutation>
G24A C25G

>  <Result>
0.0958

$$$$
>  <Mutation>
U12G C27U

>  <Result>
0.496

$$$$
>  <Mutation>
C14A G36U

>  <Result>
0.221

$$$$
>  <Mutation>
C5G C46U

>  <Result>
0.77

$$$$
>  <Mutation>
U6G A10U

>  <Result>
0.204

$$$$
>  <Mutation>
G16C A33G

>  <Result>
0.403

$$$$
>  <Mutation>
C15G A33C

>  <Result>
0.0859

$$$$
>  <Mutation>
C20G G41U

>  <Result>
0.0931

$$$$
>  <Mutation>
U6C G16C

>  <Result>
0.146

$$$$
>  <Mutation>
A34C C46G

>  <Result>
0.154

$$$$
>  <Mutation>
A11U A22U

>  <Result>
0.908

$$$$
>  <Mutation>
U18A C25G

>  <Result>
0.0662

$$$$
>  <Mutation>
C14A C46A

>  <Result>
0.773

$$$$
>  <Mutation>
A1U G24U

>  <Result>
0.0764

$$$$
>  <Mutation>
A4C A35G

>  <Result>
0.451

$$$$
>  <Mutation>
U18G G39U

>  <Result>
0.0734

$$$$
>  <Mutation>
C26G G48C

>  <Result>
0.229

$$$$
>  <Mutation>
A1U U6A

>  <Result>
0.0513

$$$$
>  <Mutation>
G28A U31A

>  <Result>
0.904

$$$$
>  <Mutation>
A2C G28U

>  <Result>
0.0994

$$$$
>  <Mutation>
A1U G41A

>  <Result>
0.0475

$$$$
>  <Mutation>
C19G A22C

>  <Result>
0.219

$$$$
>  <Mutation>
A2G A22G

>  <Result>
0.107

$$$$
>  <Mutation>
G7U G38U

>  <Result>
0.103

$$$$
>  <Mutation>
G43U G47U

>  <Result>
0.137

$$$$
>  <Mutation>
U18C G28C

>  <Result>
0.124

$$$$
>  <Mutation>
G7C A40U

>  <Result>
0.0764

$$$$
